These data points were gathered from patent US20250163052A1.

Assay: Pharmacokinetic study, plasma and brain PK parameters after I.P. dosing
Type: in vivo, mouse
Conditions: mouse, ip; brain; 25 mg/Kg I.P.; read-out: T1/2 (Brain) (converted)
measure.name: half-life (h)
State the answer as a number, implicitly in h.

Req: Suppose we examine the molecule O=C(CO)N1CCc2c(sc3c(Cl)c(Cl)cc(-c4cn[nH]c4)c23)C1 ; what half-life value has been reported?
Resp: 3.86

Req: Need half-life, item Cn1cc(-c2cc(Cl)c(Cl)c3sc4c(c23)CN(C(=O)CO)CC4)cn1
Resp: 3.45

---

Assay: Pharmacokinetic study, plasma and brain PK parameters after I.P. dosing
Format: in vivo, mouse
Conditions: mouse, ip; plasma; 25 mg/Kg I.P.; read-out: T1/2 (plasma) (converted)
Exercise: state measured half-life for each of the molecules provided.

Req: Return reported half-life; argument: O=C(CO)N1CCc2c(sc3c(Cl)c(Cl)cc(-c4cn[nH]c4)c23)C1
Resp: 4.79 h

Req: I am curious: what half-life value has been reported for Cn1cc(-c2cc(Cl)c(Cl)c3sc4c(c23)CN(C(=O)CO)CC4)cn1 ?
Resp: 4.53 h
